Let's look at some sequences and their measured apparent KD of MS2 coat protein.
- Test system: MS2 coat protein
- assay.notes: apparent KD of MS2 coat protein, switch OFF state (with FMN for OFF switches, without FMN for ON switches); designed switch direction (-1 OFF switch, 1 ON switch): -1; higher = weaker reporter binding
- applied.conditions: FMN input: 0 or 200 uM; Eterna round: R93 (includes R88 designs)
The response must be a number in nM with no trailing unit.

Request: Bench note: what apparent KD of MS2 coat protein did AAAACGUGAGGAUAUGCACCAAAAAAGGAAAAACGGGUACGACAUGAGGAUCACCCAUGUAGAAGGCACGAAAA [Frodo Flailing 9 - Jieux - Exclusion 2] show?
Response: 39

Request: Can you handle AGAAAGUCAGGAUAUACGAAAAAAAAGGGAAACAACAAGGGACAUGAGGAUCACCCAUGUAGAAGGGACAAGAA [Diamond 98] next?
Response: 140

Request: Try the sequence AAAAGUACAGGAUAUACAUGAGGAUCACCCAUGUGAAAAUUAAGUGGCGUACAACAAAGUAGAAGGGUACUGGA [Ruby 52]
Response: 44.6
